Target: JAK2 (Homo sapiens, UniProt O60674)
Sequence (O60674 826-1132 limits assumed): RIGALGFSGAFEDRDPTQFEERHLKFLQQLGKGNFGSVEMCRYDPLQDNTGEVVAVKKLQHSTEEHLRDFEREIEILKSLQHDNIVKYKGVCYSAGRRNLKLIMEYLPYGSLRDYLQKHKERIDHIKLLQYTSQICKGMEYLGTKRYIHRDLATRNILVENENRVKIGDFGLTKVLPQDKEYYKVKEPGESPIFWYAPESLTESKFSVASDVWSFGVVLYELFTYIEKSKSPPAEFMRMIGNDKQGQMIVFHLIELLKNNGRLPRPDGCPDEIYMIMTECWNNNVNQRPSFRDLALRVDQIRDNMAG
Test: JAK2 kinase ADP-Glo assay (Example 60)
OUTCOME_MEASURE: pIC50
// pIC50 here means minus log10 of the molar concentration (mol/L)

// known answers, use as guide
CCc1cc(O)c(F)cc1-c1cc(C)c2c(-c3nc4c([nH]3)CN(C(=O)N3CC[C@H](O)C3)C4)n[nH]c2c1 = 9.07
CCc1cc(O)c(F)cc1-c1ccc2c(-c3nc4c([nH]3)CN(C(=O)N(C)C)C4)n[nH]c2c1 = 9.22
CCc1cc(O)c(F)cc1-c1ccc2c(-c3nc4c([nH]3)CN(C(=O)CC(C)C)C4)n[nH]c2c1 = 9.26
CCOC(=O)N1Cc2nc(-c3n[nH]c4cc(-c5cc(F)c(O)cc5CC)ccc34)[nH]c2C1 = 8.80

Moving on to another molecule below.
Asked: Entry under review: `CCc1cc(O)c(F)cc1-c1ccc2c(-c3nc4c([nH]3)CN(C(=O)C(C)C)C4)n[nH]c2c1` . Reported pIC50?
Given back: 9.45

// data source = patent US12180215B2
